These measurements were taken from patent US11878975B2.

test system: human TLR7 (Homo sapiens)
Sequence (Q9NYK1 27-1049): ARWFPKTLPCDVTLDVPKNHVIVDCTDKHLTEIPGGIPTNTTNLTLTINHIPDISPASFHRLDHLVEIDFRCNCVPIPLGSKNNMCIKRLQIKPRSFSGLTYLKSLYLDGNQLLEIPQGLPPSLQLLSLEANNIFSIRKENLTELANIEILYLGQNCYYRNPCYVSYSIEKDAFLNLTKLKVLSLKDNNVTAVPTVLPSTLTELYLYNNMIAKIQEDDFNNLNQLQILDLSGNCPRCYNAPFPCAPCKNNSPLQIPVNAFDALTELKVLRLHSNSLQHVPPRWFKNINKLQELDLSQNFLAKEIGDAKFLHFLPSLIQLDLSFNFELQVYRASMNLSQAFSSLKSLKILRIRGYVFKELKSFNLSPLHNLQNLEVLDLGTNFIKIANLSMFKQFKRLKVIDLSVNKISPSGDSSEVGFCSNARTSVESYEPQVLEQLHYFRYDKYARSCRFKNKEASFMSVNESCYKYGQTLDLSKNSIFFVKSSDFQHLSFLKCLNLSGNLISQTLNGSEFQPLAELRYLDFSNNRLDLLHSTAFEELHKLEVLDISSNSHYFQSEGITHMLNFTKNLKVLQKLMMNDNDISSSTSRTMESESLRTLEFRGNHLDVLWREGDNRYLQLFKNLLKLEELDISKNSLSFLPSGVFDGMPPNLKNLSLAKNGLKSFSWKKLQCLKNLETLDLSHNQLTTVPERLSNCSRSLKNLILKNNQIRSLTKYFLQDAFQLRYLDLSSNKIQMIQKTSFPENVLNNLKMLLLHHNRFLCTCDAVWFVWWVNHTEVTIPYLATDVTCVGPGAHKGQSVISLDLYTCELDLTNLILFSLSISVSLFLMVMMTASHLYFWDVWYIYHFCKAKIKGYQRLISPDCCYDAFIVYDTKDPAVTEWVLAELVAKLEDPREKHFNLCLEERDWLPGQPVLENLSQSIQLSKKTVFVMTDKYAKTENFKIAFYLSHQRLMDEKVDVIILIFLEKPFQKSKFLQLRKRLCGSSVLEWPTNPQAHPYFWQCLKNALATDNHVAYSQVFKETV
assay procedure: TLR7 inhibition reporter assay (HEK-Blue cells, SEAP reporter, gardiquimod stimulation)
experimental parameters: HEK-Blue cells overexpressing human TLR7, SEAP reporter, gardiquimod 7.5 μM
experimental endpoint: IC50 (nM)
Just the number please, in nM, no unit attached.

Query: What value of measured IC50 is listed for Cc1c(-c2[nH]c3ccc(C4CC(N)C4)cc3c2C(C)C)cn2ncnc2c1C (stereo not shown) [Example 542] ?
Response: 3

Query: What value of measured IC50 is listed for CNCC(=O)N1CCCC(c2ccc3[nH]c(-c4cn5ncnc5c(C)c4C)c(C(C)C)c3c2)C1 (stereo not shown) [Example 214] ?
Response: 2

Query: What value of measured IC50 is listed for CNC1CCC(c2ccc3[nH]c(-c4cn5cnnc5c(C)c4C)c(C(C)C)c3c2)CC1 (stereo not shown) [Example 525] ?
Response: 7

Query: What value of measured IC50 is listed for Cc1c(-c2[nH]c3ccc(C4CN(C(=O)CN(C)C)C4)cc3c2C(C)C)cn2ncnc2c1C ?
Response: 3

Query: What value of measured IC50 is listed for Cc1c(-c2[nH]c3ccc(C4CN(CC(N)=O)C4)cc3c2C(C)C)cn2ncnc2c1C ?
Response: 4

Query: What value of measured IC50 is listed for Cc1cc(-c2[nH]c3ccc(C4CCCNC4)cc3c2C(C)C)cc(C)n1 (stereo not shown) [Example 186] ?
Response: 4

Query: What value of measured IC50 is listed for Cc1cc(-c2[nH]c3ccc(C4CCC(N5CCC(F)(F)CC5)CC4)cc3c2C(C)C)cn(C)c1=O (stereo not shown) [Example 466] ?
Response: 32

Query: What value of measured IC50 is listed for CC(C)c1c(-c2ccnc3[nH]ncc23)[nH]c2ccc(CN3CCN(C)CC3)cc12 ?
Response: 26

Query: What value of measured IC50 is listed for Cc1cc(-c2[nH]c3ccc(C4CN(C(=O)CN(C)C)C4)cc3c2C(C)C)cn2ncnc12 ?
Response: 0.31

Query: What value of measured IC50 is listed for COc1cc(-c2[nH]c3ccc(C4CCC(N(C)CCS(C)(=O)=O)CC4)cc3c2C(C)C)cn2ncnc12 (stereo not shown) ?
Response: 0.35
